- targetUnderTest: Human recombinant PDE3A (hPDE3A) (Homo sapiens, UniProt Q14432)
- Construct: purchased Scottish Biomedical; host or cells: Sf9 insect cells
- Sequence (Q14432 whole entry): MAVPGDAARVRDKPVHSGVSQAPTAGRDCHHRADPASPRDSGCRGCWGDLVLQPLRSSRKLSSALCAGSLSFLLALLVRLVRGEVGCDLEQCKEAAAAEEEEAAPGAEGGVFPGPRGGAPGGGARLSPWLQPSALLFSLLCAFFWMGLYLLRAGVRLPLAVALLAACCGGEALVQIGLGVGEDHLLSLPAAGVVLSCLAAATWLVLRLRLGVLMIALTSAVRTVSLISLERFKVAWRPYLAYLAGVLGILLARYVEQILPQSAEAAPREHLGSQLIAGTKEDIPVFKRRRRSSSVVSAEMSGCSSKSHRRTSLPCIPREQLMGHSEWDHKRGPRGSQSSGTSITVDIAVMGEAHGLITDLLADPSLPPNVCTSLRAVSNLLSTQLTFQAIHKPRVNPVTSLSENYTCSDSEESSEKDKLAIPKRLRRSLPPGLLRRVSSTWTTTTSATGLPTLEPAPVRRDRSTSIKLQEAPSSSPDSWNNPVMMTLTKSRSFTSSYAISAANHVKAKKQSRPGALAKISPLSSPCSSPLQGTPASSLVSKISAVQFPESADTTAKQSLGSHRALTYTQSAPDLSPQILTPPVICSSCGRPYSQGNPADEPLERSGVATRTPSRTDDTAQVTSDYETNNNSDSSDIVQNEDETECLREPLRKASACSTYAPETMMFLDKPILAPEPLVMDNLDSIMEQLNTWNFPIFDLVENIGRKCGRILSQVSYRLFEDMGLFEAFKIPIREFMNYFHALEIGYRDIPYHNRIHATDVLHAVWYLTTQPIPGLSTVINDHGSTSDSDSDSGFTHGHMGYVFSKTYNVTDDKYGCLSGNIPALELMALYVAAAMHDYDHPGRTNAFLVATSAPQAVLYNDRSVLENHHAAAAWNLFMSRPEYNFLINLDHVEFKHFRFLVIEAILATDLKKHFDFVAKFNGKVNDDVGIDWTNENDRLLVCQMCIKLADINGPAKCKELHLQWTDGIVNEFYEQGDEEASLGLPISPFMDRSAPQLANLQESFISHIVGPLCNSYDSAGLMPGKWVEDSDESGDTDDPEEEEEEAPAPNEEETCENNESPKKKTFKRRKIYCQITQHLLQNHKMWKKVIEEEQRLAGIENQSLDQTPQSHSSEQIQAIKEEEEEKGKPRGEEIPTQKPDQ
- experimentNotes: In vitro assay PDE3A (SPA, 3H-cAMP hydrolysis);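 further: the method names PDE3A and the table heading PDE3B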
- Format: biochemical
- appliedConditions: hPDE3B pIC50; read-out: pIC50 (converted)
readoutType: IC50

As a guide, the following entries are already answered.
compound	targetUnderTest	IC50
COc1ccc2nc(C(=O)N3CC[C@@H](C)[C@H](c4cc(C(F)F)nc5ncnn45)C3)sc2c1 [Compound 171]	Human recombinant PDE3A (hPDE3A) (Homo sapiens, UniProt Q14432)	1.15 µM
Cn1ncc2cc(C(=O)N3[C@H]4CC[C@H](c5cc(C(F)F)nc6ncnn56)[C@@H]3CC4)ccc21 [Compound 380]	Human recombinant PDE3A (hPDE3A) (Homo sapiens, UniProt Q14432)	3.98 µM
Cn1c(C(=O)N2[C@H]3CC[C@H](c4cc(C(F)F)nc5ncnn45)[C@@H]2CC3)cc2ccccc21 [Compound 300]	Human recombinant PDE3A (hPDE3A) (Homo sapiens, UniProt Q14432)	2 µM
Cc1cc(C(=O)N2CC[C@@H](C)[C@@](F)(c3cc(C(F)F)nc4ncnn34)C2)cc(C)n1 [Compound 81]	Human recombinant PDE3A (hPDE3A) (Homo sapiens, UniProt Q14432)	> 10 µM
C[C@@H]1CCN(C(=O)c2cccnc2N)C[C@H]1c1cc(C(F)F)nc2ncnn12 [Compound 150]	Human recombinant PDE3A (hPDE3A) (Homo sapiens, UniProt Q14432)	> 10 µM

Report IC50 for O=C(c1ccc(F)c(F)c1)N1[C@H]2CC[C@H](c3cc(C(F)F)nc4ncnn34)[C@@H]1CC2 [Compound 337] please.
> 10 µM

Requested read-out: IC50. Entry: C[C@@H]1CCN(C(=O)c2cc(C#N)ccn2)C[C@H]1c1cc(C(F)F)nc2ncnn12 [Compound 163]
> 10 µM

Give its IC50 value. Item: COc1ccc(C(C)(C)C)cc1C(=O)N1CC[C@@H](C)[C@H](c2cc(C(F)F)nc3ncnn23)C1 [Compound 165]
> 10 µM

If you can, please state the reported IC50 value of Cc1cc([C@H]2CN(C(=O)c3ccc(C)c(C)n3)CC[C@@H]2C)n2ncnc2n1 [Compound 3b] .
> 10 µM

What measured IC50 goes with C[C@@H]1CCN(C(=O)c2csc(N)n2)C[C@H]1c1cc(C(F)F)nc2ncnn12 [Compound 158] ?
> 10 µM

Find the recorded IC50 belonging to C[C@@H]1CCN(C(=O)c2ccncc2Cl)C[C@H]1c1cc(C(F)F)nc2ncnn12 [Compound 235] and report it.
> 10 µM

Which IC50 reading was recorded for the compound C[C@@H]1CCN(C(=O)c2ccncc2F)C[C@H]1c1cc(C(F)F)nc2ncnn12 [Compound 155] ?
> 10 µM

Which measured IC50 value corresponds to C[C@@H]1CCN(C(=O)c2ccc(Cl)c(C3CC3)c2)C[C@H]1c1cc(C(F)F)nc2ncnn12 [Compound 72] ?
> 1 µM

Entry C[C@@H]1CCN(C(=O)c2cnc3c(F)cccc3c2)C[C@H]1c1cc(C(F)F)nc2ncnn12 [Compound 325] : reported IC50 = ?
0.309 µM

Reported IC50, compound Cc1cnc(C(=O)N2[C@H]3CC[C@H](c4cc(C(F)F)nc5ncnn45)[C@@H]2CC3)cc1C [Compound 365] : ____
> 10 µM

---

Each entry below carries its recorded receptor occupancy at 10 mg/kg.
- targetUnderTest: PDE2A (Rattus norvegicus, UniProt Q01062)
- Construct: Twenty μm-thick striatal sections were cut; from tissue; host or cells: rat brain, striatal sections
- Sequence (Q01062 whole entry): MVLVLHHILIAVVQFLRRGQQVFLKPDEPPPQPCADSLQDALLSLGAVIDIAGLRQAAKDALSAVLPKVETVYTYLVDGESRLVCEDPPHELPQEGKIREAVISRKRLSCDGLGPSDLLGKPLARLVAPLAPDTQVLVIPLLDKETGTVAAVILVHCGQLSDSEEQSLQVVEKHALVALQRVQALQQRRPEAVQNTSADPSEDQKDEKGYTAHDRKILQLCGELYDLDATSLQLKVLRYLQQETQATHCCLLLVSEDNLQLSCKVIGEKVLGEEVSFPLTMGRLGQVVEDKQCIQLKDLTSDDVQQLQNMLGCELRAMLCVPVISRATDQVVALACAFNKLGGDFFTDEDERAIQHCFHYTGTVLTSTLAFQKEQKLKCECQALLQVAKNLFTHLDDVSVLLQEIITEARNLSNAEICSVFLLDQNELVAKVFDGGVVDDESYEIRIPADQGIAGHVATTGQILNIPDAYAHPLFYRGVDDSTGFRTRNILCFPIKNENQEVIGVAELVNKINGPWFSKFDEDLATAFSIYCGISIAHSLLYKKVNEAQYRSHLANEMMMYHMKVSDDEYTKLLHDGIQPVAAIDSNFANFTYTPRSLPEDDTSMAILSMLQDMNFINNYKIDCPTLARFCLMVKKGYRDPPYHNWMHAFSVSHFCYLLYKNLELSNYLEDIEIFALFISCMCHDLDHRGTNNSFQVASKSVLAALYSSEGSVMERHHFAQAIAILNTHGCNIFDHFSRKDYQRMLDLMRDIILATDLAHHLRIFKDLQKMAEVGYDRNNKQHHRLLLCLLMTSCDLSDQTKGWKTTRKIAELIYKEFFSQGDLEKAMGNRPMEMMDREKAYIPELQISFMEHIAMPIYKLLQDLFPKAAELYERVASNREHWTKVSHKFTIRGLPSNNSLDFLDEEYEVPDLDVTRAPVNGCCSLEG
- experimentNotes: PDE2 occupancy by test compounds, ex-vivo autoradiography with [3H]B-17a
- Assay type: in vivo, Male Wistar rats
- appliedConditions: 10 mg/kg, route PO (oral), percentage receptor occupancy, ex-vivo autoradiography, striatum
Numeric answer only, unit % assumed.

# get_value(readout= receptor occupancy at 10 mg/kg, system= PDE2A (Rattus norvegicus, UniProt Q01062)) for Cn1ccc2cc(C(=O)N3[C@H]4CC[C@H](c5cc(C(F)F)nc6ncnn56)[C@@H]3CC4)ccc21
71

For PDE2A (Rattus norvegicus, UniProt Q01062), provide receptor occupancy at 10 mg/kg of O=C(c1ccc2ncc(F)cc2c1)N1[C@H]2CC[C@H](c3cc(C(F)F)nc4ncnn34)[C@@H]1CC2 please.
-16

Item O=C(c1ccc2ccccc2c1)N1[C@H]2CC[C@H](c3cc(C(F)F)nc4ncnn34)[C@@H]1CC2 with PDE2A (Rattus norvegicus, UniProt Q01062) - receptor occupancy at 10 mg/kg?
37

Please tell me: receptor occupancy at 10 mg/kg of O=C(c1cnc2c(F)cccc2c1)N1[C@H]2CC[C@H](c3cc(C(F)F)nc4ncnn34)[C@@H]1CC2 , system PDE2A (Rattus norvegicus, UniProt Q01062)?
12

Reported receptor occupancy at 10 mg/kg for PDE2A (Rattus norvegicus, UniProt Q01062), given Cn1c(C(=O)N2[C@H]3CC[C@H](c4cc(C(F)F)nc5ncnn45)[C@@H]2CC3)cc2ccccc21 ?
-11

API: value(readout= receptor occupancy at 10 mg/kg, system= PDE2A (Rattus norvegicus, UniProt Q01062), query= Cc1nc2ccc(C(=O)N3[C@H]4CC[C@H](c5cc(C(F)F)nc6ncnn56)[C@@H]3CC4)cc2s1 )
11

Request body: readout receptor occupancy at 10 mg/kg, system PDE2A (Rattus norvegicus, UniProt Q01062), query O=C(c1cnc2ccccc2c1)N1[C@H]2CC[C@H](c3cc(C(F)F)nc4ncnn34)[C@@H]1CC2 . Return the value.
28

---

- targetUnderTest: Human recombinant PDE10A (hPDE10A) (Homo sapiens)
- Construct: His tag (inferred from metal chelate purification); made in house; host or cells: Sf9 insect cells (baculovirus)
- Sequence (Q9Y233 267-1055): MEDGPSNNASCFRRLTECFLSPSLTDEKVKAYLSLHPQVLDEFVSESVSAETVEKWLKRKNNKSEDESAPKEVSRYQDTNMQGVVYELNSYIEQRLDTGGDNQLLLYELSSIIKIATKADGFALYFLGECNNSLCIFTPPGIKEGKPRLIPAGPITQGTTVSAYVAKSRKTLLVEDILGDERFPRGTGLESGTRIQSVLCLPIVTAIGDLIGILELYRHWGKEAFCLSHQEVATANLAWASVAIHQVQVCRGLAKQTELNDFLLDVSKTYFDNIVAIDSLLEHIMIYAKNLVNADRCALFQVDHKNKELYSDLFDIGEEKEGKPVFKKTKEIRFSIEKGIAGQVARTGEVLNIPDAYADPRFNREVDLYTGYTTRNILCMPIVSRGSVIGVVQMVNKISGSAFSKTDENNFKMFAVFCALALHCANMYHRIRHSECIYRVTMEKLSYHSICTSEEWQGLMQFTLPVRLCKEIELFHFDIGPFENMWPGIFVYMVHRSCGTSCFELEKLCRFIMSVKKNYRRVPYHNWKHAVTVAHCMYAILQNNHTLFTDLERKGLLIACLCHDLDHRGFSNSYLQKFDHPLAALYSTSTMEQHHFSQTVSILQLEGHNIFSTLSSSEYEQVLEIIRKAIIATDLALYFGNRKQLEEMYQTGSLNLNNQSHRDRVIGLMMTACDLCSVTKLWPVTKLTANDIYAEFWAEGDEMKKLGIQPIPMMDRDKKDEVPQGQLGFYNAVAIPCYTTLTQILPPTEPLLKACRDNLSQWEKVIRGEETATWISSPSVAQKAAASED
- experimentNotes: In vitro assay PDE10A, human clone (SPA, 3H-cAMP hydrolysis)
- Assay type: biochemical
- appliedConditions: human clone (h), default; read-out: hPDE10A2 pIC50 (converted)
readoutType: IC50 (µM)
Give the value in µM but do not write µM after it.

smilesRepresentation	IC50 / µM
C[C@@H]1CCN(C(=O)c2ccc(O)c(F)c2)C[C@H]1c1cc(C(F)F)nc2ncnn12	0.0537
C[C@@H]1CCN(C(=O)c2ccc(F)c(O)c2)C[C@H]1c1cc(C(F)F)nc2ncnn12	0.339

Would you kindly look at the next entry?
# query: IC50 of entry C[C@@H]1CCN(C(=O)c2ccncc2Cl)C[C@H]1c1cc(C(F)F)nc2ncnn12
5.5

---

- targetUnderTest: Human recombinant PDE3A (hPDE3A) (Homo sapiens)
- Construct: purchased Scottish Biomedical; host or cells: Sf9 insect cells
- experimentNotes: In vitro assay PDE3A (SPA, 3H-cAMP hydrolysis);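 further: the method names PDE3A and the table heading PDE3B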
- Format: biochemical
- appliedConditions: hPDE3B pIC50; read-out: pIC50 (converted)
readoutType: IC50

smilesRepresentation	readoutType	measurement
Cn1cnc2cc(C(=O)N3[C@H]4CC[C@H](c5cc(C(F)F)nc6ncnn56)[C@@H]3CC4)ccc21	IC50	5.25 µM
C[C@@H]1CCN(C(=O)c2cccc(N)n2)C[C@H]1c1cc(C(F)F)nc2ncnn12	IC50	> 10 µM
C[C@@H]1CCN(C(=O)c2ccc(F)c(O)c2)C[C@H]1c1cc(C(F)F)nc2ncnn12	IC50	6.03 µM

From here, focus on the item given below.
If you can, please state the reported IC50 value of C[C@@H]1CCN(C(=O)c2nccnc2N)C[C@H]1c1cc(C(F)F)nc2ncnn12 .
> 10 µM

---

Documented log10(IC50) across a set of compounds
- targetUnderTest: Human recombinant PDE2A (hPDE2A) (Homo sapiens, UniProt O00408)
- Construct: His tag (inferred from metal chelate purification); made in house; host or cells: Sf9 insect cells (baculovirus)
- Sequence (O00408 whole entry): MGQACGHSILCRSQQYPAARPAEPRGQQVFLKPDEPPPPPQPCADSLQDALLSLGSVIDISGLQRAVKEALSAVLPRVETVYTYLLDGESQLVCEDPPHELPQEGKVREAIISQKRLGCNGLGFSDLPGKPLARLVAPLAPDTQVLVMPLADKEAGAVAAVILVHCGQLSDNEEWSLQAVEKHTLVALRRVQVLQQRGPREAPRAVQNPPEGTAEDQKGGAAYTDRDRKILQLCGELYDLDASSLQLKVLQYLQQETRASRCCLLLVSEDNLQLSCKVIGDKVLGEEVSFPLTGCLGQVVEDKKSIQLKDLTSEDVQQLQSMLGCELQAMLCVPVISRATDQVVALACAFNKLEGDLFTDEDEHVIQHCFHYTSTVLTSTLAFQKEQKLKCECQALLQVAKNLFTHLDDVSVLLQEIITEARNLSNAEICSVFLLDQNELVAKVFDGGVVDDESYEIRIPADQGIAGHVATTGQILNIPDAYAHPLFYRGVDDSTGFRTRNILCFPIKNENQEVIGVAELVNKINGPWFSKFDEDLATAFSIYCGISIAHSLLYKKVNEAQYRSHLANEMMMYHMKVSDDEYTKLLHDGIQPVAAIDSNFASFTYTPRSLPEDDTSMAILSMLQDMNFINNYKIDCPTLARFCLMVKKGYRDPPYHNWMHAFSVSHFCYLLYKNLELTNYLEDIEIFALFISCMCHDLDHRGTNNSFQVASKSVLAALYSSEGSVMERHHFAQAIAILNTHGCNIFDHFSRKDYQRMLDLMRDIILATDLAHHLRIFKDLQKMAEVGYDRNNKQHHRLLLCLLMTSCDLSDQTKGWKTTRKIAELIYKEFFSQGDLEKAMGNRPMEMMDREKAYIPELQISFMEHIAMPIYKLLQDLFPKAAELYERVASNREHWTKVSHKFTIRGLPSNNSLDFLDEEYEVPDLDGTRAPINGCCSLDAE
- experimentNotes: In vitro assay PDE2A (SPA, 3H-cGMP hydrolysis)
- Type: biochemical
- appliedConditions: read-out: hPDE2A pIC50 (converted)
# log10 transformed; quantity=IC50; unit=nM

compound	targetUnderTest	log10(IC50)
O=C(c1ccc(Cl)s1)N1[C@H]2CC[C@H](c3cc(C(F)F)nc4ncnn34)[C@@H]1CC2	Human recombinant PDE2A (hPDE2A) (Homo sapiens, UniProt O00408)	1.71

Need log10(IC50), item Cc1nn(C)c2sc(C(=O)N3[C@H]4CC[C@H](c5cc(C(F)F)nc6ncnn56)[C@@H]3CC4)cc12
-0.02

Dear colleague, I am looking for the recorded log10(IC50) of the following compound: Cc1cc(C(=O)N2[C@H]3CC[C@@H]2[C@H](c2cc(C(F)F)nc4ncnn24)CC3)cc(C(F)(F)F)n1
3.84

Reported log10(IC50), compound C[C@@H]1CCN(C(=O)c2ccc(Cl)c(OC(F)F)c2)C[C@H]1c1cc(C(F)F)nc2ncnn12 : ____
0.25
